Test system: LLC-PK1 cells
Test: cytotoxic activity against mammalian cells in tissue culture (MTT)
Format: cell-based, pig

item-smiles	assay-target	IC50 (cytotoxic activity)
C[C@@H]1[C@H](O)[C@@H](C)/C=C/C=C/C=C/C=C/C=C/C=C/C=C/[C@H](O[C@@H]2O[C@H](C)[C@@H](O)[C@H](NC(=S)NCCN3CCCCC3)[C@@H]2O)C[C@@H]2O[C@](O)(C[C@@H](O)C[C@@H](O)[C@H](O)CC[C@@H](O)C[C@@H](O)CC(=O)O[C@H]1C)C[C@H](O)[C@H]2C(=O)O	LLC-PK1 cells	>100 µg/mL

---

The following compounds are shown together with reported Antifungal activity MIC values.
Test system: Candida albicans ATCC 10231
Test: antifungal activity in vitro, serial dilution in RPMI 1640
Assay type: cell-based
observable: Antifungal activity MIC (µg/mL)

compound	reading
C[C@@H]1[C@H](O)[C@@H](C)/C=C/C=C/C=C/C=C/C=C/C=C/C=C/[C@H](O[C@@H]2O[C@H](C)[C@@H](O)[C@H](NCc3ccc(-c4ccccc4)cc3)[C@@H]2O)C[C@@H]2O[C@](O)(C[C@@H](O)C[C@@H](O)[C@H](O)CC[C@@H](O)C[C@@H](O)CC(=O)O[C@H]1C)C[C@H](O)[C@H]2C(=O)O [Compound A20, N-[(4-biphenyl)methyl]amphotericin B]	4
C[C@@H]1[C@H](O)[C@@H](C)/C=C/C=C/C=C/C=C/C=C/C=C/C=C/[C@H](O[C@@H]2O[C@H](C)[C@@H](O)[C@H](NC(=S)NCCN3CCCCC3)[C@@H]2O)C[C@@H]2O[C@](O)(C[C@@H](O)C[C@@H](O)[C@H](O)CC[C@@H](O)C[C@@H](O)CC(=O)O[C@H]1C)C[C@H](O)[C@H]2C(=O)O [Compound A22]	1
